sequences and their reported PBM binding z-score
# Tested on: PPARg:RXRa 90nM:30nM, anti-RXR (NR concentration 90 nM, RXRa partner concentration 30 nM)
# method.description: PBM binding z-score (relative to random genomic background probes); higher = stronger binding; sequences stand for … in GC…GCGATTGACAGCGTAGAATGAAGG
Write the number on its own, no unit after it.

// query I have this sequence here, `ACCATTAGTTGACTTAGGGCAACCGATACGACGC` , and I need its recorded PBM binding z-score.
// result 0.582

// query I have this sequence here, `ATATGTAGGTTACATCCAGGTCATTCAGGCTATG` , and I need its recorded PBM binding z-score.
// result 4.04

// query I have this sequence here, `TCATATAGGTAAACAGCTGAAAGTCCGTAAGTTA` , and I need its recorded PBM binding z-score.
// result 3.19

// query I have this sequence here, `CCGACTGGGGCAGAAAGGTTACCATTCCATCCGG` , and I need its recorded PBM binding z-score.
// result 2.13

// query I have this sequence here, `GGAACGAGAGCAAGTTGATAGCAGAGTTTGATGG` , and I need its recorded PBM binding z-score.
// result -0.721

// query I have this sequence here, `TCTGCTAGGTCAACGATGTTCAGCTAATCTGCTA` , and I need its recorded PBM binding z-score.
// result 2.42

// query I have this sequence here, `TGTAGTTGGTCAAAGGTCACACACTCGAAATGCG` , and I need its recorded PBM binding z-score.
// result 11.7

// query I have this sequence here, `TCGAGTAGTTTACCAATGGGGCATTCAGCTTTCT` , and I need its recorded PBM binding z-score.
// result 0.499

// query I have this sequence here, `TCTCCTAGGTCAACGATGGTCAGCTAATCTGCTA` , and I need its recorded PBM binding z-score.
// result 3.51

// query I have this sequence here, `CGTCCAAAGTCAGCAGGTCAGTGAAAGCGACGTG` , and I need its recorded PBM binding z-score.
// result -0.432

----------
# Test system: FXR:RXRa (NR concentration 270 nM, RXRa partner concentration 90 nM)
# method.description: PBM binding z-score (relative to random genomic background probes); higher = stronger binding; sequences stand for … in GC…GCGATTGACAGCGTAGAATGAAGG
measured.attribute: PBM binding z-score
Write the number on its own, no unit after it.

Some entries whose results are on file:
# sequence.content, result
data = [
    ("AGAATGAGGTTATTAAGTTCAGGGAATTGCGGTC", 2.41),
    ("GCTATTAGTTGAAAGGGCAAACGAATGATTCTCG", 0.733),
    ("CAAACTAGGTCACCGGAACGTCAAAGTCCGCATG", 4.29),
    ("ACTGGGAGGACAAAGGTCAGAGCTACGCCAGTGA", 4.45),
    ("TTACCAAGGTGAGCTGAGGTCATTGATCCAACTC", 4.44),
    ("CGTCCAAGGCCAAGGTCAGTGAAAGAGACTCGAA", 1.58),
]

// query Lab request: please report PBM binding z-score under test system FXR:RXRa (NR concentration 270 nM, RXRa partner concentration 90 nM) for `AGAATGAGGTTACCAAAGAACAGGGAAACGCTTG`
// result 1.88

// query Lab request: please report PBM binding z-score under test system FXR:RXRa (NR concentration 270 nM, RXRa partner concentration 90 nM) for `CCTAGTTCGTCAGGAGGTCACACACCGGATATGA`
// result 3.66

// query Lab request: please report PBM binding z-score under test system FXR:RXRa (NR concentration 270 nM, RXRa partner concentration 90 nM) for `AGAACGAGGTCAATGAGTTGATAGCACGGGTGGC`
// result 7.39

// query Lab request: please report PBM binding z-score under test system FXR:RXRa (NR concentration 270 nM, RXRa partner concentration 90 nM) for `CTTCAAAGTTCAACTAAGGTAACGTAAAGCACGC`
// result 7.28

// query Lab request: please report PBM binding z-score under test system FXR:RXRa (NR concentration 270 nM, RXRa partner concentration 90 nM) for `CGTCCAAGGTTAGAGAGGTCAGTGAATGCCGAGT`
// result 2.67

// query Lab request: please report PBM binding z-score under test system FXR:RXRa (NR concentration 270 nM, RXRa partner concentration 90 nM) for `CCTGCTGGGCCAAAGGTCATTGATTCCAATGCTC`
// result 5.24

// query Lab request: please report PBM binding z-score under test system FXR:RXRa (NR concentration 270 nM, RXRa partner concentration 90 nM) for `GCTCGGAGGACAAGGGCAGAGCTTTGTCCGTAGA`
// result -0.487

// query Lab request: please report PBM binding z-score under test system FXR:RXRa (NR concentration 270 nM, RXRa partner concentration 90 nM) for `TCTAGCAGGCCAGAGGGTCACTCTAGAGGTACGG`
// result 0.795

// query Lab request: please report PBM binding z-score under test system FXR:RXRa (NR concentration 270 nM, RXRa partner concentration 90 nM) for `CCTACTGGGCCATTCAGAGGTCATTTATCATATG`
// result 2.65

// query Lab request: please report PBM binding z-score under test system FXR:RXRa (NR concentration 270 nM, RXRa partner concentration 90 nM) for `TCTAGATGGTCACGGAGGTCACACACGACGGGTA`
// result 3.7

// query Lab request: please report PBM binding z-score under test system FXR:RXRa (NR concentration 270 nM, RXRa partner concentration 90 nM) for `CGAACTAGGTCAGACCAGGACAGTGAAGGATGAT`
// result 1.62

// query Lab request: please report PBM binding z-score under test system FXR:RXRa (NR concentration 270 nM, RXRa partner concentration 90 nM) for `CAGACTAGGTCACCGGAAGGTCAAAGTCCGCATG`
// result 5.95

// query Lab request: please report PBM binding z-score under test system FXR:RXRa (NR concentration 270 nM, RXRa partner concentration 90 nM) for `CTCGAAAGGTCTTGCTCAGGTGAGTATACCAAAC`
// result 0.669

// query Lab request: please report PBM binding z-score under test system FXR:RXRa (NR concentration 270 nM, RXRa partner concentration 90 nM) for `CCGACTGGGGCAAAGGTTTCCATACTCAGTACGA`
// result -0.478

----------
# System: THRa homodimer (NR concentration 90 nM)
# method.description: PBM binding z-score (relative to random genomic background probes); higher = stronger binding; sequences stand for … in GC…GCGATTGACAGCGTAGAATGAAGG
measured.attribute: PBM binding z-score
Write the number on its own, no unit after it.

Some entries whose results are on file:
# sequence.content, PBM binding z-score
measured = [
    ("TATTGTAGATCAATAGAGGTTAAGAAAGTGCGCT", -0.234),
    ("CCTAGCAGGCCAGGGTCACTCAGGCATTTCGCTT", 0.878),
    ("CCTAGCAGGCCAGGGTCACACAAGCATTTCGCTT", 1.54),
    ("TCTCAAAGTTCAAAGGTAACGTAAGTATCCACAC", 0.566),
]

// query I have this sequence here, `ATCTCTAGGTAACCAAGTTAAGTGAATGCCGAAC` , and I need its recorded PBM binding z-score.
// result 0.542

----------
sequences and their reported PBM binding z-score
# Tested on: RARb homodimer (NR concentration 270 nM)
# method.description: PBM binding z-score (relative to random genomic background probes); higher = stronger binding; sequences stand for … in GC…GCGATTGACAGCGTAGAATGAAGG

Some entries whose results are on file:
# sequence.content, experimental.target, result
records = [
    ("GGAAAGAGGGCATTCGAGTTGATAGCATGGCGAT", "RARb homodimer (NR concentration 270 nM)", 1.42),
    ("TTACTAAGGTGAAAGGTCGTTGATGCACGCCTTG", "RARb homodimer (NR concentration 270 nM)", 3.02),
    ("TCTATTAGTTGATTAGGGCAACCGGAACAGCGGA", "RARb homodimer (NR concentration 270 nM)", 0.786),
]

// query I have this sequence here, `AGACTGAGGTTACCAAAGATCAGGGAAACGCTTG` , and I need its recorded PBM binding z-score.
// result 0.774

// query I have this sequence here, `AGAACGAGGGCACGCGGAGTTGATAGCAGAGTAG` , and I need its recorded PBM binding z-score.
// result 1.42

// query I have this sequence here, `GCTGCTAGGTCACCTGATGGTCAGCTAAAGCTCG` , and I need its recorded PBM binding z-score.
// result 3.33

// query I have this sequence here, `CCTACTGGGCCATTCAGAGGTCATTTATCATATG` , and I need its recorded PBM binding z-score.
// result 3.73

// query I have this sequence here, `CCTTACGGGTCACGAGGATATAGCACGACGAGCG` , and I need its recorded PBM binding z-score.
// result 3.37

// query I have this sequence here, `GCTGCTACGTCAGGTTGGTCAGCTAACGGGTACG` , and I need its recorded PBM binding z-score.
// result -0.00672

// query I have this sequence here, `GCTTGCAGATCAAGGTTAAGAAAGACTAAGCTAA` , and I need its recorded PBM binding z-score.
// result -0.0263

// query I have this sequence here, `ATCTCTAGGTAACTAAGTTCAGTGAATGCCGAAC` , and I need its recorded PBM binding z-score.
// result 1.92

// query I have this sequence here, `GTACCAAGGTGAATCGGTCGTTGATGAGTAGGCG` , and I need its recorded PBM binding z-score.
// result 1.27

// query I have this sequence here, `CCGACTGGGGCAGAAAGGTTACTATACCATCCGG` , and I need its recorded PBM binding z-score.
// result 1.91

// query I have this sequence here, `CGAACTAGGTCAAGGACAGCGAATCTCCGCACGC` , and I need its recorded PBM binding z-score.
// result 3.31

// query I have this sequence here, `CAAACTAGGTGAAAGGTCAAAGTCGAGCCAACCA` , and I need its recorded PBM binding z-score.
// result 4.61

// query I have this sequence here, `CCTTACGGGTCACTGACAGATTATAGCATTTGGA` , and I need its recorded PBM binding z-score.
// result 3.01

// query I have this sequence here, `CCTAGTTGGTCAGGAGGTCACTCACCGGATATGA` , and I need its recorded PBM binding z-score.
// result 3.92

// query I have this sequence here, `GCGACTGGGGCAAAGCAGCTTACCATAAGGTTGG` , and I need its recorded PBM binding z-score.
// result -0.0781

// query I have this sequence here, `CCGACTGGGGCGAGGTTACCATAACGCACAGCCA` , and I need its recorded PBM binding z-score.
// result 0.887
